Experiment: Biodistribution of 99mTc(N)(X)(DTC)+ heterocomplexes in rats
Format: in vivo, male Spraque-Dawley rats (SD rats)
Settings: 10 min after injection
Kindly supply the reported Muscle % dose/g values for the records listed here.
Numbers only, in % dose/g.

The cases that follow already have their Muscle % dose/g on record.
compound	value units	measured
CSC1=[S+][99Tc-2]2(#[N])([NH]N1C)[P+](c1ccccc1)(c1ccccc1)CCOCC[P+]2(c1ccccc1)c1ccccc1 [^99mTc(N)(POP)(DTC)^+]	% dose/g	0.069
COCCC[P]1(CCCOC)CCN(CCOC)CC[P](CCCOC)(CCCOC)[99Tc+]12(#[N])[NH]N(C)C(SC)=[S]2 [^99mTc(N)(PNP3)(DTC)^+]	% dose/g	0.252
COCCN1CC[P+](c2ccccc2)(c2ccccc2)[99Tc-2]2(#[N])([NH]N(C)C(SC)=[S+]2)[P+](c2ccccc2)(c2ccccc2)CC1 [^99mTc(N)(PNP2)(DTC)^+]	% dose/g	0.064

Then this compound:
Please indicate Muscle % dose/g recorded for CCCN1CC[P+](c2ccccc2)(c2ccccc2)[99Tc-2]2(#[N])([NH]N(C)C(SC)=[S+]2)[P+](c2ccccc2)(c2ccccc2)CC1 [^99mTc(N)(PNP1)(DTC)^+] 0.121

====

Kindly supply the reported Stomach % dose/g values for the records listed here.
Experiment: Biodistribution of 99mTc(N)(X)(DTC)+ heterocomplexes in rats
Type: in vivo, male Spraque-Dawley rats (SD rats)
Settings: 30 min after injection
Give bare numbers, in % dose/g.

The cases that follow already have their Stomach % dose/g on record.
compound	Stomach % dose/g, % dose/g
CSC1=[S+][99Tc-2]2(#[N])([NH]N1C)[P+](c1ccccc1)(c1ccccc1)CCOCC[P+]2(c1ccccc1)c1ccccc1 [^99mTc(N)(POP)(DTC)^+]	0.216
COCCC[P]1(CCCOC)CCN(CCOC)CC[P](CCCOC)(CCCOC)[99Tc+]12(#[N])[NH]N(C)C(SC)=[S]2 [^99mTc(N)(PNP3)(DTC)^+]	1.511

Batch lookup, Stomach % dose/g per entry.
1. CCCN1CC[P+](c2ccccc2)(c2ccccc2)[99Tc-2]2(#[N])([NH]N(C)C(SC)=[S+]2)[P+](c2ccccc2)(c2ccccc2)CC1 [^99mTc(N)(PNP1)(DTC)^+]
2. COCCN1CC[P+](c2ccccc2)(c2ccccc2)[99Tc-2]2(#[N])([NH]N(C)C(SC)=[S+]2)[P+](c2ccccc2)(c2ccccc2)CC1 [^99mTc(N)(PNP2)(DTC)^+]

[0.444, 1.135]

====

Kindly supply the reported Liver % dose/g values for the records listed here.
Assay: Biodistribution of 99mTc(N)(X)(DTC)+ heterocomplexes in rats
Format: in vivo, male Spraque-Dawley rats (SD rats)
Conditions: 30 min after injection
Give bare numbers, in % dose/g.

molecule	value units	Liver % dose/g
CCCN1CC[P+](c2ccccc2)(c2ccccc2)[99Tc-2]2(#[N])([NH]N(C)C(SC)=[S+]2)[P+](c2ccccc2)(c2ccccc2)CC1 [^99mTc(N)(PNP1)(DTC)^+]	% dose/g	5.976
COCCN1CC[P+](c2ccccc2)(c2ccccc2)[99Tc-2]2(#[N])([NH]N(C)C(SC)=[S+]2)[P+](c2ccccc2)(c2ccccc2)CC1 [^99mTc(N)(PNP2)(DTC)^+]	% dose/g	7.341
CSC1=[S+][99Tc-2]2(#[N])([NH]N1C)[P+](c1ccccc1)(c1ccccc1)CCOCC[P+]2(c1ccccc1)c1ccccc1 [^99mTc(N)(POP)(DTC)^+]	% dose/g	6.199

Please indicate Liver % dose/g recorded for COCCC[P]1(CCCOC)CCN(CCOC)CC[P](CCCOC)(CCCOC)[99Tc+]12(#[N])[NH]N(C)C(SC)=[S]2 [^99mTc(N)(PNP3)(DTC)^+] 0.732
